Recorded values, source the nanobody polyreactivity screen of Harvey et al. (2022).

- test_description: yeast display, Sf9 membrane polyspecificity reagent, FACS + sequencing; frameworks hold sequencing errors
recorded_endpoint: polyreactivity (PSR sort gate)

Consider the reported polyreactivity (PSR sort gate) for these sequences:
residue_sequence=QVQLVESVGGLVQAGGSLRLSCDASGSTFPKYAMGRSRQAPAKEIELVAGISWRGGSTYYADSVKGRFTISRDNAKNTVYLQMNSLKPEDTAVYYCNKYLYYSFQDDYWGQGTQVTVSS reported_result="high polyreactivity"
residue_sequence=QVQLQESGGGLVQVGGSQRLSCAASGNIFYNYAMGWYRHAQGKEREFDATINHGTSINYADSVKGRFTISRDNAKNSVYLQMNSLKPEDTAVYYCAADLSWTDNLFYWGQGTQVTVSS reported_result="low polyreactivity"
residue_sequence=QVQLVESGGGLVQAGGSLRLSCAASGRTFASNAMGWYTQAPGKERELVAAITISGGRTYYADSVKGRFTISRDNAKNTVYLQMNSLIPEDTAVYYCAAAKHSWRPSYYWGGYWGQGTQVTVSS reported_result="low polyreactivity"
residue_sequence=QDQLVESGGGLVQAGGRLRLSCAASGRTFYWNAMGWNRQAPGKEREMVAAITRGGSTTYADSVKGRFTISRDNAKNTVYLQMNSLKPEDTAVYYCNKVYSLWPGYRYDYWGQGTQVTVSS reported_result="high polyreactivity"
residue_sequence=QVQLVESGGGLVQAGGSLRLSSAASGFTFVRYTMGWYRQAPGKERELVAAINASGDRTYYADSVKGRFTISRDNAKNTVYLQMNCLIPEDTAVFYCAAGSSLYYSHMGYWGQGTQVTVSS reported_result="high polyreactivity"
residue_sequence=QVQLVESGGGIVQAGGSLRLSCAASGPNFTDNAMGWYRQAPGKERELVAAITGPGGSTYYAHSVKGRFTISRDNAKTTVYLQMNSLKREDTAVFYCAADYYYPYYWGQGTQVTVSS reported_result="low polyreactivity"
residue_sequence=HVQLVESGGGLVQAGGSLRLSCAASGSTFFKYGMGWNRQAPGKERELVASITSRTGSTYYADSVKGRFTISRDNAKNTVYLQMKSLKPEDTAVYYCNVRRGGGYRYGARTFIYGHWGEGTQVTVSS reported_result="high polyreactivity"
residue_sequence=QVQLVESGGGLVQAGGSLRLSCAASGSTFGDYTMGWYRQAPGKERELVAAISSGGSTYYADSVKGRFTISRDNAKNTVYLQMNSLKPEDTAVYYCAAYTKRYLYNYWGQGTQVTVSS reported_result="high polyreactivity"
residue_sequence=QVQLVESGGGLVQAGGSLRLSCAASGRIIFRNAMGWYRQAPGKERELVAAISTSGGSTYYADSVKGRFTISRDNAKNTVYLQMNSLKPEDTAVYYWSKQFNSSPRRYYWGQGTQVTVSS reported_result="high polyreactivity"
residue_sequence=QVQIVETGGGLVQAGGSLRLSCAASGRIFFRNPMGWYRPAPRKEREFVAAINWSGGSTYYADSVKGRFTISRDNAKNTVYLQMNSLKPEDTAVYYCAARGSRGGRRGATASMDYWGQGTQVTVSS reported_result="high polyreactivity"

Please examine the following record next.
[ask] Using the record for `QVQLVESGGGLVQAGGSLRLSCAASGRIFKRNAMGGYRQAPGKDREVVADMSYGHSTYADSVKGRFTISRDNAKKTVYLQMNSLKPEDTAFYYCAKLYWIRTYDYWGQGTQVSVSS` , report its polyreactivity (PSR sort gate).
[reply] low polyreactivity

---

- test_description: yeast display, Sf9 membrane polyspecificity reagent, FACS + sequencing; frameworks hold sequencing errors
recorded_endpoint: polyreactivity (PSR sort gate)

Consider the reported polyreactivity (PSR sort gate) for these sequences:
residue_sequence=QVQLVESGGGLVQAGGSLRLSCAASGSILTDYAMGWYRQAPGKERELVATISNGGSTNYADSVKGRFTISRDNAKNTVYLQMNSLKPEDTAVYYCNAEPGVPSWELDYWGQGTQVTVSS recorded_endpoint="polyreactivity (PSR sort gate)" reported_result="low polyreactivity"
residue_sequence=QVQLVESGGGLVQAGGSLRLSCAASGITFPANARGWYRPAPGKERELVAAISSSGDSTYYADSVKGRFTISRDNAKNTVYFQMNILKPEDTAVYYCAAKDYVWGQGTQVTVSS recorded_endpoint="polyreactivity (PSR sort gate)" reported_result="low polyreactivity"
residue_sequence=QVQLVESGGGLVQAGGSLRLSCAASGSIFNAYAMGWYRQAPGKERELVAAISKRTSYADSVKGRFTISRDNAKNTVYLQMNSLKPEDTAVYYCAKEVDEPDGYEYDYWGQGTQVTVSS recorded_endpoint="polyreactivity (PSR sort gate)" reported_result="low polyreactivity"
residue_sequence=QVQLVESGGGLVQAGGSLRLSCAPSGSIVNRYALGWYRQAPGKEREFVAAITRRGGYTYYADSVKGRFTISRDNAKNSVYLPLNSLKPEDTAVYYCAAPFYYPAGLLYYENNYWRQGTQVTVSS recorded_endpoint="polyreactivity (PSR sort gate)" reported_result="high polyreactivity"
residue_sequence=QVQLVESGGGLVQAGGSLRLSCAASGSTFDYNAMGWYRQAPGKERELVAAIRWSGDTTYYADSVKGRFTISRDNAKNTVYLQRNSLKPEDTAVYYCANVPIYRYGVWAMNYWGQGTQVTVSS recorded_endpoint="polyreactivity (PSR sort gate)" reported_result="high polyreactivity"
residue_sequence=QVQLVESGGGLVQAGGSLRLSCAASGFTLGFYAMAWYRPAPGKERELVAAINWRGGSTYYADSVKGRFTISRYNAKNTVYLQMNSLKPADTAVYYSNRVYRPSLYDYWGQGTQVSVSS recorded_endpoint="polyreactivity (PSR sort gate)" reported_result="high polyreactivity"
residue_sequence=QVQLVESGGGLVQAGGSLRLSCSASGRTFVRNAMGWYRQAPGKERELVAAISSIGDSTYYADSVKGRFTISRDNAKNTVYLQMNSLKPEDTAVYYCNARGYVYYRMGYWGQGTQVTVSS recorded_endpoint="polyreactivity (PSR sort gate)" reported_result="low polyreactivity"
residue_sequence=QVQLVESGGGLVQAGGSLRLSCAASGSTFGKNAMGWYRQAPRKERELVAAISRSGGRTYYADSVKGRFTISRDNAKNTVYLQMNSLKPEDTAVYYCAREWYTAGSGDYWGQGTQVTVSS recorded_endpoint="polyreactivity (PSR sort gate)" reported_result="low polyreactivity"
residue_sequence=QVHLVETGGGLVQAGGSLRISCAASGFTFSRYAMVWYRQAPGKERELVAAITSRGGSTYYADSVKGRFTISRDNAKNTVYLQMNSLKPEDTAFYYCAASGRNRKDGLYEYYYWGQGTQVTVSS recorded_endpoint="polyreactivity (PSR sort gate)" reported_result="high polyreactivity"
residue_sequence=QVQLQESGGGLVQAGGCLSCTASGTIFGQGDMGWYRQAPGKERELVATINVGASTYYADSVKGRFTISRDKAKNTVYLQKNSLKPDDTAVYYCAVFTDITTYFGYWGQGTQVTVSS recorded_endpoint="polyreactivity (PSR sort gate)" reported_result="low polyreactivity"

[ask] Using the record for `QVQLVESGGGLVQAGGSLRLSCAASGFTFPVYAMGWYRQAPGKEREFVAAITKSGGGTYYADSVKGRFTISRDNAKNTVYLQMNSLKPVDTAVYYCAKASRRFLTLGYDYWGQGTQVTVSS` , report its polyreactivity (PSR sort gate).
[reply] high polyreactivity

[ask] What about this sequence? `QVQLVESGGGLVQAGGSLRLSCAASGFTIRSYVMGWYRQAPGKEREFVAAISYRGGGTNYADSVKGRFTISRDNAKNTVYLQMNSLKPEDTAVYYCNARSGSSKSGYYYWGQGTQVTVSS`
[reply] high polyreactivity

---

- test_description: yeast display, Sf9 membrane polyspecificity reagent, FACS + sequencing; frameworks hold sequencing errors
recorded_endpoint: polyreactivity (PSR sort gate)

residue_sequence=QVQLVESGGGLVQAGGSLRLSCAASGFTFNRYVMGWYRQAPGKERELVAAISGGGARTYYADSVKGRFTISRDNAKNTVYLQMNSLKPEDTAVYYCNARYKSHSVSDYYYWGQGTQVTVSS reported_result="high polyreactivity"
residue_sequence=QVQLVESRGGLVQAGGSLRLSCAASGSTSYIYVMGWYRQAPGKERELVATISKNGGDTYADSVKGRFTISRDNAKNTVYLQMNSLKPEDTAVYYCYARAYLYNRRISSRYNYWGQGTQVTVSS reported_result="high polyreactivity"
residue_sequence=QVQLVESGGGLVQSGGSLRLSCAASGLIFTSYAMGWYRQAPGKERELVAAISYSGGTTFYADYVKGRFTISRDNAKNTVYLQMNSLKPEDTAVYYCAADSLSTTHDTLGYDRDDYWGQGTQVTVSS reported_result="low polyreactivity"
residue_sequence=QVQLVESGGGLVHAGGSLRLSFAASGRTFQVYAMGWSRQAPGKERELVAAITSLGGTYYADSVKGRFTISRYNAKNTVYLQMNSLKPEDTAVYYCAARARSTPRKYYYTRGYWGQGTQVTVSS reported_result="high polyreactivity"
residue_sequence=QDQLVESGGGLVQAGGSLRLSCAASGFIFDTYAMGWYRQAPGKERELVAVISSGGSTYYADSVKGRFTISRDNAKNTVYLQMNSLKPEDTAVYYCAADSGYLGIYGDEYSWGQGTQVTVSS reported_result="low polyreactivity"
residue_sequence=QVQLVESGGGLVQAGGSLRLSCAASGSTFSTNVMGWYRQAPGKERELVAAISTIGGSTYADSVKGRFTISRDNAKNTVYLQMNSQKPEDTAVYYCAKRSRYPYYPYGYWGQGTQVTVSS reported_result="high polyreactivity"
residue_sequence=QVQLVDSGGGLVQAGGSLRLSCAASGRIFSRYAMGWYRQAPGKERELVASISYSGGSTNYADSVKGRFTISRDNAKNTFYLQMNSLKPEDTAVYYCAAGQYSYRRRYNYWGQGTQVTVSS reported_result="high polyreactivity"
residue_sequence=QVQLVESGGGLVQAGGSLRLSCAASGFTFSYYAMGWYRQAPGKERELVARISFSGTRTYYADSVKGRFTISRDNAKNTVYLEMNSLKPEDTAVYYCAARFGYVGITARYDYWGQGTQVTVSS reported_result="high polyreactivity"
residue_sequence=QVQLVESGGGLVQAGGSLRLSCAASGSTFYYNAMGWYRQAPGKERELVAVINSGGSTYYADSVKGRFTISRDNAKNTVYLQMNSLKPEDTAVYYCARRRRESRQDGDYWGQGTQVTVSS reported_result="high polyreactivity"
residue_sequence=QVQLVESGGGLVQAGGSLRLSCAPSGGTFPVYAMGWYRQAPGKERELVAAISYSGVTTYNADSVKGRFTISRDNAKNTVYLQMNSLKPEVTAVYYCNADWRPWYMFSYDYWGQGTQVTVSS reported_result="low polyreactivity"

Please examine the following record next.
[ask] Using the record for `QVQLVESGGGLVQAGGSLRLSCADSGRTLGVYAMRWYRQAPGKERELVASISFSGGRTYYADSVKGRFTISRDNAKNTVYLQMNSLKPEDTAVYYCAAGGRVRYQTKYRYGYDYWGQGTQVTVSS` , report its polyreactivity (PSR sort gate).
[reply] low polyreactivity
